Recorded values, source the NTF2 design screens of Basanta et al. (2020).

Catalogue of protease stability score readings, one per entry.
experiment: protease stability score; higher = more stable; yeast display proteolysis, trypsin and chymotrypsin;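 also: relative to predicted unfolded state with 0 unfolded-like and 1 meaning tenfold more protease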
property measured: protease stability score

> print(dat)
                                   seq.text  observed.value
1  DEHTRLMDRVSKELMHYRRTGDEHSLDHLLDPHVRLDQGDWEKHGMEEYIEFVRRVKNVKLRIHDITVDIVNGVVIVFIDGILHVNGVDITTRIHIYFRKVNGVWLVESLRYEVG           0.373
2  SEEKHYFDSMLEIWRHLMQTGDERLFSELFDPNALVLFNGRHDHGRDAFRWILLQLRIDHINVHLRDFRKQGNKIIIHSEIEVDFTVNGQRREDSHMQIIIFHKIDGRWYATSLEVQ            1.53
3  DEDHELVHRAIRDLFRALDTGDEDALEEMMDPHTRLHVGDKIYHGRDNVLRFWRRLGVDHVKVHLHDVRIQGEKIDQNTELRIQIGDKRITTETRIIMFKFDGRWRRESVHIE            1.01
4  SETEELASKVTKEFKRVLETGDWRVSLNLLDPDTLLEINGVEFHGREAWEEFNERFKNVKIHFIERDMKIVGNKIKIEGHLEDRWNGQSTHREMHLVFDKVNGRWFNRSVHFG            0.57
5  DHVEEDARTRLKLFLTHWLTGDEHSTNELFDPNVRIDVNGKIIVGRHVLSEEWSRLGIKHSILHIDHIHIDEDEIHIDGILRLIFENHVLDLRVNLHAEKYDGRWHSSEVQVK            1.25
6  DEDKEALHEILRLIAEAWNTGDEHTLRRLFDPDVRVEVGDKEFHGREEVDRWFRHLRIEHVETRLHDTRSQGDKLLSDTRLHFVGEVNGVHFNRSTETDLFVHKVDGRWRIESIRVR            1.03

###

test: protease stability score; higher = more stable; yeast display proteolysis, trypsin and chymotrypsin;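 also: relative to predicted unfolded state with 0 unfolded-like and 1 meaning tenfold more protease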
property measured: protease stability score

> print(dat)
                                   seq.text  observed.value
1  DDEKEITHTLSEIWIHTVRTGDEDTATNLVDPHARLDYNGREFHGRELISELMIRHLTEWRITHIHIDHVRVINGRFEIHSHQDGHFDGVRRKVEVHIDIIIIDGVVKEIRIRVH            1.17
2  SEEQEKSEEFWRLVVEFLLTGDEHQILNLLDPNVLTEIGDKKYHGRELASEVLRRYADEIRLKEVELHDRDEVNGVLHLHTVVRGEYNGREINLESHWELEKVDGRWHIKRVEIR             1.6
3  EEWRDHVHHLLELMLHLWRTGDEEIFHRLLDPDTLVRVNGVEFHGRDAMHHVLHRLIEELGINHYRESDFDIQGNKAFHHGELRVNGKTVLEEQRYVIFNGKIKEIRITLH           0.271
4  SEDHHLMEHAIEIMLEMIRTGDEQKYLNLVDPHARLEIDGREHHGWKRMREVFRWLGVDHSDVRHVNVQGEKVEVDTIIEVGDKRIEVIVIVRKINGRWVIEEVRVH           0.549
5  DEWDEHLEHVAKLIIELLLTGDEETLSRLADPHTRLEWNGRETHGRENMQETLIKILKEIWIHDIRIRHVRTQGDKAHVEGEQDGIINGVRRILDVRILIVVFNGRLRSLRFQID           0.693
6  DELEEDVRSSLKVLLHSHRTGNEELNEKMADPNARVTVDGVEFHGREEMVHWISHIRVERFILRSVHFQGDKLHIDGESDGVVNGRRWRRRTHIIELKVDGKWVLKSLIFE            1.46
7  DEEEHALWHWFQEHVHALETGDEDTLRELADPNVRLDINGKRIHGRHQLEHLIHRIDHMRIDDYKIDHVDRQGEKVIIDGTFHGKIIQGDKTIHMHTRVIIILLKVDGQWRLKSEQID            1.12
8  SEDEHDSELALRIFIQEVYTGDWKRLADNMDPNVRLEINGVENHGRELAIKNLRRRLEELGVKVSDLKIDDIKVQGDKVNLDGQLNLHVNGRTIIINTEVIFRKVDGRWIIESIRYE             1.7

###

assay: protease stability score; higher = more stable; yeast display proteolysis, trypsin and chymotrypsin;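 also: relative to predicted unfolded state with 0 unfolded-like and 1 meaning tenfold more protease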
Examples of sequences with documented protease stability score follow.
property measured: protease stability score

> print(dat)
                                   seq.text  observed.value
1  NDLERDAEHMLKLLIEAHLTGNEDIFEEFMDPNTRLVVGDKDNHGREFAEDYFKEWRVKHVRLKHYRSIGNYVEFDTETNVHVNGRDIRTETKITIVKIDGRWLLKVLIFG            1.72
2  SEEEKWTEIAFTLWREVVETGDEHDVQEMADPNARYKQGDKEYHGREHLLEFMVKFFRHARVDDDDHKHVRTINGRVELQMRSEVTINGKLLITDVELIIVKVNGRWVVESLILG            1.43
3  DEDTREAEKMYRLFRHLFLTGDWEHTYQLADPHVRTDFNGVEWHGRELALEILLHFLEILGVDHITLKRQEIHIVDGRLLVILHLELRAENHSEDLLIIVIMNKFDGRWHVESEEIKVR           0.539
4  HEEEEEAERFVKEIIHSWKTGNEDDMHRLVDPNVRLIIGDKTYHGRENFVKHMEEWLQRAGVKHFHLRKVDVFDGKLDIHSEVRQGSDETELHISVEKINGRWRLQLVIIV             1.7
5  DRHEKIALEMARIILELLYTGDEDTFKHLADPNVKLHLDINGRHFEHHGREEHEKWSRELERHMRITDIKIDDEKVQGDWVHIDSTIVMRIGDKSSIHKMHFIFQIVDGRIKNMEVVIK            1.38
